Test system: HT29 colon
Assay: NCI-60 one-dose screen, 48 h (100 = growth as untreated, 0 = no growth, -100 = all killed)
Details: 10 µM unless noted
Compounds without any hit were thinned out: in the full panel of roughly 83,000, 20% have a hit.
Answer each item with its documented growth.
One number for each entry, in %.

-- ask Return reported growth; argument: `Clc1ccc(-c2nc(-c3cccs3)no2)cc1`
-- reply 96

-- ask Return reported growth; argument: C=CCOC(=O)C1=C(C)NC2=C(C(=O)CC(C)(C)C2)C1c1ccc(OC)cc1 (stereo not given)
-- reply 102

-- ask Return reported growth; argument: COc1ccc(CC2c3cc(OC)c(OC)cc3CC[N+]2(C)CCC(=O)OCCCCCOC(=O)CC[N+]2(C)CCc3cc(OC)c(OC)cc3C2Cc2ccc(OC)c(OC)c2)cc1OC (stereo not given)
-- reply 96

-- ask Return reported growth; argument: `C#C[C@]1(O)CC[C@H]2[C@@H]3CC=C4c5sc(-c6cccc(Br)c6)nc5CC[C@]4(C)[C@H]3CC[C@@]21C`
-- reply 83.1

We next turn to a different compound, shown below.
-- ask Return reported growth; argument: `CCn1c(=O)c(C(=O)NCCCO)c(O)c2ccccc21`
-- reply 109
